- protocol.notes: in vitro
- experimental.context: human, hela cells, % viability
metric: viability at 28.5 h, 10 µM (%)
Number in %, nothing else.

Cc1cc2cc(CN(CC3CCCO3)C(=O)C3CC3)c(Cl)nc2cc1C (stereo not shown) [CBK109881]	101
Cc1nc2c(c(C)c1CC(=O)NCc1cccc(C#N)c1)c(=O)[nH]n2C [CBK304959]	92.4
CC(C)(C)c1ccc(C(=O)NNC(=O)C(=O)Nc2ccccc2)cc1 [CBK261701]	83.1
c1cnc(OC2CCN(CC3CCCCC3)CC2)c(OCCN2CCOCC2)n1 [CBK082941T]	87.3
N=C1NC(=O)/C(=C/c2cccc(OCc3cccc4ccccc34)c2)S1 [CBK263610]	93.9

Need viability at 28.5 h, 10 µM of Cc1ccc(C(=O)CN2CCC3(CC2)NCCc2c3[nH]c3ccc(F)cc23)cc1 [CBK039503] , thanks.
107

Further, for Cc1ccc(N2CC(c3nc(-c4ccncc4)no3)CC2=O)cc1Cl (stereo not shown) [CBK288582] ?
109

Further, for Cc1cc(C)n(-c2nc3c(c(=O)[nH]c(=O)n3C)n2CCc2ccccc2)n1 [CBK087129] ?
90.2

Further, for CCc1c(C(=O)NCc2cc(C3CC3)[nH]n2)[nH]c2ccc(F)cc12 [CBK282501] ?
76.3

Further, for O=C(O)c1cc(C(=O)O)cc(N2C(=O)C3C4C=CC(C4)C3C2=O)c1 (stereo not shown) [CBK261193] ?
97.5

Further, for Cc1oc(CC(C)C)c(CN2CCCCC2)c1C(=O)O [CBK265448C] ?
113

Further, for CC1OCCC12CN(c1cc(CO)c(F)cn1)CCO2 (stereo not shown) [CBK304775] ?
102

Further, for Cn1ccnc1C1(O)CCN(C(=O)c2ccc(F)cc2F)CC1 [CBK283552] ?
103
